System: Hepatitis C virus
Test: Antiviral activity against HCV genotype 1b subgenomic replicon infected in human HuH7 clone B cells assessed as inhibition of viral RNA replication after 5 days by RT-PCR method
Assay type: functional, organism-based, Hepacivirus hominis
Details: subtype 1b, Huh-7, 120 h
Each entry below lists one item and its recorded EC90 value.
valueKind: EC90

compound="CC(C)OC(=O)[C@H](C)NP(=O)(OC[C@H]1O[C@@H](n2cnc3c(N)ncnc32)[C@](F)(Cl)[C@@H]1O)Oc1ccccc1 (mixture of isomers)" valuekind=EC90 valueobserved="≥ 10 µM"
compound=Nc1nc2c(ncn2[C@@H]2O[C@H](CO)[C@@H](O)[C@@]2(F)Cl)c(=O)[nH]1 valuekind=EC90 valueobserved="> 10 µM"
compound=Nc1ccn([C@@H]2O[C@H](CO)[C@@H](O)[C@@]2(F)Br)c(=O)n1 valuekind=EC90 valueobserved="> 10 µM"
compound=O=c1ccn([C@@H]2O[C@H](CO)[C@@H](O)[C@@]2(F)Br)c(=O)[nH]1 valuekind=EC90 valueobserved="> 10 µM"
compound=CC(C)OC(=O)[C@H](C)N[P@](=O)(OC[C@H]1O[C@@H](n2cnc3c(=O)[nH]c(N)nc32)[C@](F)(Br)[C@@H]1O)Oc1ccccc1 valuekind=EC90 valueobserved="> 10 µM"
compound=O=c1ccn([C@@H]2O[C@H](CO)[C@@H](O)[C@@]2(F)Cl)c(=O)[nH]1 valuekind=EC90 valueobserved="> 10 µM"
compound="CC(C)OC(=O)[C@H](C)NP(=O)(OC[C@H]1O[C@@H](n2ccc(=O)[nH]c2=O)[C@](F)(Cl)[C@@H]1O)Oc1ccccc1 (mixture of isomers)" valuekind=EC90 valueobserved="3.7 µM"
compound="CC(C)OC(=O)[C@H](C)NP(=O)(OC[C@H]1O[C@@H](n2ccc(N)nc2=O)[C@](F)(Cl)[C@@H]1O)Oc1ccccc1 (mixture of isomers)" valuekind=EC90 valueobserved="3.4 µM"
